I'd be grateful if you could share measured viability, T/C for these entries.
System: DMS-114 complex spheroids with HUVEC/MSC, growth % test/control
Experiment: Anticancer human tumor DMS-114 cell line growth inhibition [AhR]
Conditions: second compound 1 µM; first compound 3.16 µM; active compounds read low

Req: Which measured viability, T/C belongs to NS(=O)(=O)OCC1CC(n2ccc3c(NC4CCc5ccccc54)ncnc32)CC1O (stereo unspecified) + Cc1ccccc1N=Nc1ccc(NC(=O)c2ccnn2C)c(C)c1 , tested on DMS-114 complex spheroids with HUVEC/MSC, growth % test/control?
Resp: 21.6%

Req: Same thing, different molecule: COc1cc(Nc2ncc3c(n2)-c2ccc(Cl)cc2C(c2c(F)cccc2OC)=NC3)ccc1C(=O)O + Cc1cncc(-c2nc(NCCc3c[nH]c4ccccc34)c3ncn(C(C)C)c3n2)c1
Resp: 61.7%

Req: Same thing, different molecule: Nc1ccccc1NC(=O)c1ccc(CNC(=O)OCc2cccnc2)cc1 + CC(CO)NC(=O)c1cc(-c2ccc(Cl)cc2)nn(-c2cnn(C)c2)c1=O
Resp: 24.6%

Req: Same thing, different molecule: Nc1ccccc1NC(=O)c1ccc(CNC(=O)OCc2cccnc2)cc1 + Cc1cncc(-c2nc(NCCc3c[nH]c4ccccc34)c3ncn(C(C)C)c3n2)c1
Resp: 16.9%

Req: Same thing, different molecule: COc1cc(Nc2ncc3c(n2)-c2ccc(Cl)cc2C(c2c(F)cccc2OC)=NC3)ccc1C(=O)O + Cc1ccccc1N=Nc1ccc(NC(=O)c2ccnn2C)c(C)c1
Resp: 102%

Req: Same thing, different molecule: COc1cc(Nc2ncc3c(n2)-c2ccc(Cl)cc2C(c2c(F)cccc2OC)=NC3)ccc1C(=O)O + CC(CO)NC(=O)c1cc(-c2ccc(Cl)cc2)nn(-c2cnn(C)c2)c1=O
Resp: 61.4%

----------
System: DMS-114 complex spheroids with HUVEC/MSC, growth % test/control
Test: Anticancer human tumor DMS-114 cell line growth inhibition [AhR];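 note: spheroids exposed to agents for 7 days before readout; 100% = DMSO vehicle control wells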
Details: second compound 10 µM; first compound 1 µM; active compounds read low
I'd be grateful if you could share measured viability, T/C for these entries.
I only need the number, in %, no unit after it.

Req: Which measured viability, T/C belongs to COc1cccc2c1C(=O)c1c(O)c3c(c(O)c1C2=O)CC(O)(C(=O)CO)CC3OC1CC(N)C(O)C(C)O1 (stereo not drawn) + Cc1cncc(-c2nc(NCCc3c[nH]c4ccccc34)c3ncn(C(C)C)c3n2)c1 , tested on DMS-114 complex spheroids with HUVEC/MSC, growth % test/control?
Resp: 0.37

Req: Same thing, different compound: Nc1ccccc1NC(=O)c1ccc(CNC(=O)OCc2cccnc2)cc1 + CC(CO)NC(=O)c1cc(-c2ccc(Cl)cc2)nn(-c2cnn(C)c2)c1=O
Resp: 45.8

Req: Same thing, different compound: O=C(c1cc(Cc2n[nH]c(=O)c3ccccc23)ccc1F)N1CCN(C(=O)C2CC2)CC1 + Cc1cncc(-c2nc(NCCc3c[nH]c4ccccc34)c3ncn(C(C)C)c3n2)c1
Resp: 37

----------
Test system: DMS-114 complex spheroids with HUVEC/MSC, growth % test/control
Test: Anticancer human tumor DMS-114 cell line growth inhibition [AhR];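 note: spheroids exposed to agents for 7 days before readout; 100% = DMSO vehicle control wells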
Conditions: second compound 0.316 µM; first compound 0.0316 µM; active compounds read low
Rule: viability, T/C below 90% gives MET. Equal to or above 90% gives NOT MET.

Req: I'd appreciate it if you could check whether COc1cc(Nc2ncc3c(n2)-c2ccc(Cl)cc2C(c2c(F)cccc2OC)=NC3)ccc1C(=O)O + CC(CO)NC(=O)c1cc(-c2ccc(Cl)cc2)nn(-c2cnn(C)c2)c1=O has viability, T/C smaller than 90%.
Resp: MET

Req: Same thing, different molecule: Nc1ncn(C2CC(O)C(CO)O2)c(=O)n1 (stereo unspecified) + CC(CO)NC(=O)c1cc(-c2ccc(Cl)cc2)nn(-c2cnn(C)c2)c1=O
Resp: NOT MET

Req: Same thing, different molecule: COc1ccc([C@@H](O)c2cc(-c3ncnc4cc(N5CCOCC5)ccc34)c(F)cc2Cl)nn1 + CC(CO)NC(=O)c1cc(-c2ccc(Cl)cc2)nn(-c2cnn(C)c2)c1=O
Resp: NOT MET

Req: Same thing, different molecule: Cn1ncnc1C1c2n[nH]c(=O)c3cc(F)cc(c23)NC1c1ccc(F)cc1 (stereo unspecified) + Cc1cncc(-c2nc(NCCc3c[nH]c4ccccc34)c3ncn(C(C)C)c3n2)c1
Resp: MET

Req: Same thing, different molecule: CC[C@@]1(O)C(=O)OCc2c1cc1n(c2=O)Cc2cc3c(CN(C)C)c(O)ccc3nc2-1 + Cc1cncc(-c2nc(NCCc3c[nH]c4ccccc34)c3ncn(C(C)C)c3n2)c1
Resp: MET

Req: Same thing, different molecule: CC1COCCN1c1cc(C2(S(C)(=N)=O)CC2)nc(-c2ccnc3[nH]ccc23)n1 (stereo unspecified) + CC(CO)NC(=O)c1cc(-c2ccc(Cl)cc2)nn(-c2cnn(C)c2)c1=O
Resp: NOT MET

----------
Tested on: DMS-114 complex spheroids with HUVEC/MSC, growth % test/control
Assay: Anticancer human tumor DMS-114 cell line growth inhibition [AhR];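 note: spheroids exposed to agents for 7 days before readout; 100% = DMSO vehicle control wells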
Settings: second compound 1 µM; first compound 0.316 µM; active compounds read low
Excerpt: Multicellular complex tumor spheroid response to aryl hydrocarbon receptor antagonists in combination with a variety of drugs and investigational agents in selected tumor cell lines […] Compounds. […] If the clinical Cmax for an agent had not been determined, the highest concentration tested was 10 microM (Table 1). […]
Rule: viability, T/C below 80% gives Y. Equal to or above 80% gives N.

Req: I'd appreciate it if you could check whether CC(C)c1c(-c2ccccc2)nc2c(C#N)c[nH]n2c1=O + CC(CO)NC(=O)c1cc(-c2ccc(Cl)cc2)nn(-c2cnn(C)c2)c1=O has viability, T/C smaller than 80%.
Resp: N

Req: Same thing, different molecule: COc1ccc([C@@H](O)c2cc(-c3ncnc4cc(N5CCOCC5)ccc34)c(F)cc2Cl)nn1 + Cc1cncc(-c2nc(NCCc3c[nH]c4ccccc34)c3ncn(C(C)C)c3n2)c1
Resp: N

Req: Same thing, different molecule: CC(C)c1c(-c2ccccc2)nc2c(C#N)c[nH]n2c1=O + Cc1cncc(-c2nc(NCCc3c[nH]c4ccccc34)c3ncn(C(C)C)c3n2)c1
Resp: N

Req: Same thing, different molecule: Nc1ncn(C2CC(O)C(CO)O2)c(=O)n1 (configuration not stated) + CC(CO)NC(=O)c1cc(-c2ccc(Cl)cc2)nn(-c2cnn(C)c2)c1=O
Resp: N

Req: Same thing, different molecule: COc1cc(C2c3cc4c(cc3C(OC3OC5COC(C)OC5C(O)C3O)C3COC(=O)C23)OCO4)cc(OC)c1O (configuration not stated) + CC(CO)NC(=O)c1cc(-c2ccc(Cl)cc2)nn(-c2cnn(C)c2)c1=O
Resp: Y

Req: Same thing, different molecule: CC1COCCN1c1cc(-c2ccnn2C)c2ccnc(-c3ccn[nH]3)c2n1 (configuration not stated) + CC(CO)NC(=O)c1cc(-c2ccc(Cl)cc2)nn(-c2cnn(C)c2)c1=O
Resp: Y

Req: Same thing, different molecule: COc1cc(Nc2ncc3c(n2)-c2ccc(Cl)cc2C(c2c(F)cccc2OC)=NC3)ccc1C(=O)O + Cc1ccccc1N=Nc1ccc(NC(=O)c2ccnn2C)c(C)c1
Resp: N

Req: Same thing, different molecule: CC1(C)CCC(CN2CCN(c3ccc(C(=O)NS(=O)(=O)c4ccc(NCC5CCOCC5)c([N+](=O)[O-])c4)c(Oc4cnc5[nH]ccc5c4)c3)CC2)=C(c2ccc(Cl)cc2)C1 + CC(CO)NC(=O)c1cc(-c2ccc(Cl)cc2)nn(-c2cnn(C)c2)c1=O
Resp: N

Req: Same thing, different molecule: Nc1ncn(C2CC(O)C(CO)O2)c(=O)n1 (configuration not stated) + Cc1ccccc1N=Nc1ccc(NC(=O)c2ccnn2C)c(C)c1
Resp: N

Req: Same thing, different molecule: COc1cccc2c1C(=O)c1c(O)c3c(c(O)c1C2=O)CC(O)(C(=O)CO)CC3OC1CC(N)C(O)C(C)O1 (configuration not stated) + CC(CO)NC(=O)c1cc(-c2ccc(Cl)cc2)nn(-c2cnn(C)c2)c1=O
Resp: Y

Req: Same thing, different molecule: O=C(c1cc(Cc2n[nH]c(=O)c3ccccc23)ccc1F)N1CCN(C(=O)C2CC2)CC1 + Cc1ccccc1N=Nc1ccc(NC(=O)c2ccnn2C)c(C)c1
Resp: N

Req: Same thing, different molecule: O=C(C=Cc1cccc(S(=O)(=O)Nc2ccccc2)c1)NO + Cc1cncc(-c2nc(NCCc3c[nH]c4ccccc34)c3ncn(C(C)C)c3n2)c1
Resp: Y

----------
Test system: DMS-114 complex spheroids with HUVEC/MSC, growth % test/control
Assay: Anticancer human tumor DMS-114 cell line growth inhibition [AhR];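 note: spheroids exposed to agents for 7 days before readout; 100% = DMSO vehicle control wells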
Conditions: second compound 0.1 µM; first compound 0.01 µM; active compounds read low
TEST READOUT: viability, T/C (%)
I only need the number, in %, no unit after it.

Req: Sample Cn1ncnc1C1c2n[nH]c(=O)c3cc(F)cc(c23)NC1c1ccc(F)cc1 (configuration not stated) + Cc1cncc(-c2nc(NCCc3c[nH]c4ccccc34)c3ncn(C(C)C)c3n2)c1 — what was its viability, T/C?
Resp: 105

Req: Same thing, different compound: Nc1ncn(C2CC(O)C(CO)O2)c(=O)n1 (configuration not stated) + Cc1ccccc1N=Nc1ccc(NC(=O)c2ccnn2C)c(C)c1
Resp: 105

Req: Same thing, different compound: CC1COCCN1c1cc(-c2ccnn2C)c2ccnc(-c3ccn[nH]3)c2n1 (configuration not stated) + Cc1cncc(-c2nc(NCCc3c[nH]c4ccccc34)c3ncn(C(C)C)c3n2)c1
Resp: 85.9

Req: Same thing, different compound: Nc1ncn(C2CC(O)C(CO)O2)c(=O)n1 (configuration not stated) + CC(CO)NC(=O)c1cc(-c2ccc(Cl)cc2)nn(-c2cnn(C)c2)c1=O
Resp: 95.6

Req: Same thing, different compound: CC1COCCN1c1cc(-c2ccnn2C)c2ccnc(-c3ccn[nH]3)c2n1 (configuration not stated) + Cc1ccccc1N=Nc1ccc(NC(=O)c2ccnn2C)c(C)c1
Resp: 96.3

Req: Same thing, different compound: Nc1ncn(C2CC(O)C(CO)O2)c(=O)n1 (configuration not stated) + Cc1cncc(-c2nc(NCCc3c[nH]c4ccccc34)c3ncn(C(C)C)c3n2)c1
Resp: 88.5

Req: Same thing, different compound: CC[C@@]1(O)C(=O)OCc2c1cc1n(c2=O)Cc2cc3c(CN(C)C)c(O)ccc3nc2-1 + CC(CO)NC(=O)c1cc(-c2ccc(Cl)cc2)nn(-c2cnn(C)c2)c1=O
Resp: 95.2

Req: Same thing, different compound: Cn1ncnc1C1c2n[nH]c(=O)c3cc(F)cc(c23)NC1c1ccc(F)cc1 (configuration not stated) + Cc1ccccc1N=Nc1ccc(NC(=O)c2ccnn2C)c(C)c1
Resp: 110

Req: Same thing, different compound: CC[C@@]1(O)C(=O)OCc2c1cc1n(c2=O)Cc2cc3c(CN(C)C)c(O)ccc3nc2-1 + Cc1cncc(-c2nc(NCCc3c[nH]c4ccccc34)c3ncn(C(C)C)c3n2)c1
Resp: 75.6

Req: Same thing, different compound: Cn1ncnc1C1c2n[nH]c(=O)c3cc(F)cc(c23)NC1c1ccc(F)cc1 (configuration not stated) + CC(CO)NC(=O)c1cc(-c2ccc(Cl)cc2)nn(-c2cnn(C)c2)c1=O
Resp: 102

Req: Same thing, different compound: CC[C@@]1(O)C(=O)OCc2c1cc1n(c2=O)Cc2cc3c(CN(C)C)c(O)ccc3nc2-1 + Cc1ccccc1N=Nc1ccc(NC(=O)c2ccnn2C)c(C)c1
Resp: 88.6

Req: Same thing, different compound: CC1COCCN1c1cc(-c2ccnn2C)c2ccnc(-c3ccn[nH]3)c2n1 (configuration not stated) + CC(CO)NC(=O)c1cc(-c2ccc(Cl)cc2)nn(-c2cnn(C)c2)c1=O
Resp: 82
